Reference source for all entries: paper PMC6159316

Assay System: CSP3 (Chilo suppressalis)
Sequence (V9PY40 19-126): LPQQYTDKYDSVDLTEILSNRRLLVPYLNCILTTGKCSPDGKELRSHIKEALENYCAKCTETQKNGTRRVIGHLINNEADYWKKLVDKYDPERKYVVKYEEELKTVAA
Format: binding
Reported Conditions: read-out: CSP3 IC50; displacement of 1-NPN; ligand 2–30 µM
pIC50: −log10 of the molar value.
Property Name: pIC50

Use these answered entries as a reference point.
{"columns": ["Compound", "Result"],
 "data": [
  ["CC/C=C\\CCO [Z3-Hexenol]", "< 4.52"],
  ["CCC/C=C\\C=O [Z2-Hexenal]", "< 4.52"],
  ["CCCCCCCCCCCC=O [Laurinaldehyde]", "< 4.52"],
  ["CCC/C=C/C=O [E2-Hexenal]", "< 4.52"]
]}

From here, focus on the item given below.
// fetch pIC50 given entry CCCCCCCCCCCC(=O)O [Lauric acid]
< 4.52
